Just for reference, patent US10752624B2 is where these values come from.

Target Or System: LRRK2 (Homo sapiens)
Sequence (Q5S007 970-2527 limits assumed): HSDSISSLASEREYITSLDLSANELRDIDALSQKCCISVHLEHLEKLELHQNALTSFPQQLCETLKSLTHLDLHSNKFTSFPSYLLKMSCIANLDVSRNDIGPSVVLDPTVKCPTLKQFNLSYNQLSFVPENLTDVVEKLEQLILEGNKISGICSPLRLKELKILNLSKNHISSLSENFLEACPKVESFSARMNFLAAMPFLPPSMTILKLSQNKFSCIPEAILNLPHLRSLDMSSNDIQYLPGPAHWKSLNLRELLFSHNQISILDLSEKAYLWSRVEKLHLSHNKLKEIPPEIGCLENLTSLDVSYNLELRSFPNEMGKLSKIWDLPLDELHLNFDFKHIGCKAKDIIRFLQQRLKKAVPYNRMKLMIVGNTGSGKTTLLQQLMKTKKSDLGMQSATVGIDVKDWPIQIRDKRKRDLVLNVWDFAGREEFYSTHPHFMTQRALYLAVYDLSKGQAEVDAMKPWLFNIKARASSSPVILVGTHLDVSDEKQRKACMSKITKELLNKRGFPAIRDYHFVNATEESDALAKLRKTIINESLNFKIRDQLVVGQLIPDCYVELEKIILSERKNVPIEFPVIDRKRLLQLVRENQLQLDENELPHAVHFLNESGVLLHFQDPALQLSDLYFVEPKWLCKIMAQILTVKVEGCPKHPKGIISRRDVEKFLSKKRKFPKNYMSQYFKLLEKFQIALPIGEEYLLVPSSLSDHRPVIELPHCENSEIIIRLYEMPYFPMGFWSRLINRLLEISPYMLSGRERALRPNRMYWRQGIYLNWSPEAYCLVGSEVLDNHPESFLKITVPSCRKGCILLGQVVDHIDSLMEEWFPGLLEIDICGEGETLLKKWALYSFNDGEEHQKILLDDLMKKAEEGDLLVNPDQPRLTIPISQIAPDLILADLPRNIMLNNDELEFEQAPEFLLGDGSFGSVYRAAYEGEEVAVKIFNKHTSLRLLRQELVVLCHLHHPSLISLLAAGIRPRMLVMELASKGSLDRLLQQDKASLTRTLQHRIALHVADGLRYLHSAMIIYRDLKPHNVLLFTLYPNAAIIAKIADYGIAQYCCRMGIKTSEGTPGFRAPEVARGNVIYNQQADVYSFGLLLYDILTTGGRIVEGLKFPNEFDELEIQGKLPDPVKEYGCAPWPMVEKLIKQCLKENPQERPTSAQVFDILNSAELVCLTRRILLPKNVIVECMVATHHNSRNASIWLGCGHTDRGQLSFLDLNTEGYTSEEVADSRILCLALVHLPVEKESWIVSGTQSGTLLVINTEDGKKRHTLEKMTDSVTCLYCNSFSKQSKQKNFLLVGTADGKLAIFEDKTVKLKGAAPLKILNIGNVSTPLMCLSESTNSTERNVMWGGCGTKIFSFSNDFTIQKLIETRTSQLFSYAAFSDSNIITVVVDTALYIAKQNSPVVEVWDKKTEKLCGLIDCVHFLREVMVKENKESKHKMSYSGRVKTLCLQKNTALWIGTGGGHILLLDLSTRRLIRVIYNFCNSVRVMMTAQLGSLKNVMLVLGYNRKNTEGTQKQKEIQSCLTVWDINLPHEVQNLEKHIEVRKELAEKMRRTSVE
Method Summary: LRRK2-LRRK2 G2019S-Assay (LanthaScreen Eu Kinase Binding Assay)
Measurement Parameters: 5 nM LRRK2, 10 nM tracer 236, 2 nM EU-Anti-GST antibody, 1 h at RT; read-out: LRRK2 Activities: IC50
Result Type: IC50

Here's what some known entries look like.
# Compound, Target Or System, IC50
rows = [
    ("CSc1ccc2nc(Nc3ccc(N4CCN(C(C)=O)CC4)cc3)c3[nH]ncc3c2c1", "LRRK2 (Homo sapiens)", "10 to 100 nM"),
    ("CS(=O)(=O)c1ccc2nc(Nc3ccc(C(=O)N4CCOCC4)cc3)c3[nH]ncc3c2c1", "LRRK2 (Homo sapiens)", "10 to 100 nM"),
    ("CC(C)(O)Cn1cc(Nc2nc3cc(S(C)(=O)=O)ccc3c3cn[nH]c23)cn1", "LRRK2 (Homo sapiens)", "100 to 1000 nM"),
]

Need IC50, item `CS(=O)(=O)c1ccc2c(c1)nc(Nc1ccc3c(c1)NC(=O)CCC3)c1[nH]ncc12`
100 to 1000 nM

Need IC50, item COc1cccc2nc(Nc3cn(C(C)C)nc3C)c3[nH]ncc3c12 [Example 222]
10 to 100 nM

Need IC50, item `COc1cccc2nc(Nc3cnn(C4CCOCC4)c3)c3[nH]ncc3c12`
< 10 nM

Need IC50, item COc1ccc2nc(Nc3cnn(C4CCCOC4)c3)c3n[nH]cc3c2c1 (stereo not shown)
10 to 100 nM

---

Target Or System: UniProtKB Q5S007
Method Summary: LRRK2-LRRK2 G2019S-Assay (LanthaScreen Eu Kinase Binding Assay)
Measurement Parameters: 5 nM LRRK2, 10 nM tracer 236, 2 nM EU-Anti-GST antibody, 1 h at RT; read-out: LRRK2 Activities: IC50
pIC50: −log10 of the molar value.
Result Type: pIC50

Here's what some known entries look like.
# Line Notation, Result Type, Result
data = [
    ("C=C(C)Cn1cc(Nc2nc3cccc(OC)c3c3cn[nH]c23)cn1", "pIC50", "> 8.00"),
    ("COc1ccc2nc(Nc3cnn(C4CCN(C(C)=O)CC4)c3)c3n[nH]cc3c2c1", "pIC50", "7.00 to 8.00"),
    ("COc1cc(OC)c2nc(Nc3cnn(C4CCOCC4)c3)c3[nH]ncc3c2c1", "pIC50", "7.00 to 8.00"),
    ("COc1ccc(Nc2nc3ccc(C)cc3c3cn[nH]c23)cc1OC", "pIC50", "6.00 to 7.00"),
    ("CS(=O)(=O)c1ccc2nc(Nc3ccc(C(=O)N4CCOCC4)c(F)c3)c3[nH]ncc3c2c1", "pIC50", "7.00 to 8.00"),
    ("O=C(c1ccc(Nc2nc3cccc(F)c3c3cn[nH]c23)cc1)N1CCOCC1", "pIC50", "6.00 to 7.00"),
    ("COc1ccc2nc(Nc3ccc(C(=O)N4CCOCC4)c(F)c3)c3n[nH]cc3c2c1", "pIC50", "7.00 to 8.00"),
    ("COCCn1cc(Nc2nc3ccc(S(C)(=O)=O)cc3c3cn[nH]c23)c(C#N)n1", "pIC50", "7.00 to 8.00"),
]

Consider the additional compound presented here.
Need pIC50, item `COc1cc(OC)c2nc(Nc3ccc(C(=O)N4CCOCC4)cc3)c3[nH]ncc3c2c1`
7.00 to 8.00
